System: Klebsiella pneumoniae
Assay: Antibacterial activity against Klebsiella pneumoniae ATCC 13833 after 16 to 18 hrs by microbroth dilution method
Format: functional
REPORTED METRIC: MIC

- SMILES STRING: "CCNC(=N)NCCCCCCN1CCCCCCCCNC(=N)NC1=O.O=C(O)C(F)(F)F.O=C(O)C(F)(F)F"
  MIC: "> 256 µg/mL"
- SMILES STRING: "CC(C)=CCNC(=N)NCCCCCCN1CCCCCCCCNC(=N)NC1=O.O=C(O)C(F)(F)F.O=C(O)C(F)(F)F"
  MIC: "> 256 µg/mL"

The record that follows has no MIC shown yet.
Provide measured MIC on Klebsiella pneumoniae for "C=C(C)CNC(=N)NCCCCCCN1CCCCCCCCNC(=N)NC1=O.O=C(O)C(F)(F)F.O=C(O)C(F)(F)F" please.
> 256 µg/mL
